experimental.target: LRRK2 wild type (recombinant human, catalytic domain amino acids 970-2527, GST-tagged) (Homo sapiens)
Construct: The wild type used was recombinant human, catalytic domain (amino acids 970-2527) GST-tagged, expressed in insect cells; GST
Sequence (Q5S007 970-2527): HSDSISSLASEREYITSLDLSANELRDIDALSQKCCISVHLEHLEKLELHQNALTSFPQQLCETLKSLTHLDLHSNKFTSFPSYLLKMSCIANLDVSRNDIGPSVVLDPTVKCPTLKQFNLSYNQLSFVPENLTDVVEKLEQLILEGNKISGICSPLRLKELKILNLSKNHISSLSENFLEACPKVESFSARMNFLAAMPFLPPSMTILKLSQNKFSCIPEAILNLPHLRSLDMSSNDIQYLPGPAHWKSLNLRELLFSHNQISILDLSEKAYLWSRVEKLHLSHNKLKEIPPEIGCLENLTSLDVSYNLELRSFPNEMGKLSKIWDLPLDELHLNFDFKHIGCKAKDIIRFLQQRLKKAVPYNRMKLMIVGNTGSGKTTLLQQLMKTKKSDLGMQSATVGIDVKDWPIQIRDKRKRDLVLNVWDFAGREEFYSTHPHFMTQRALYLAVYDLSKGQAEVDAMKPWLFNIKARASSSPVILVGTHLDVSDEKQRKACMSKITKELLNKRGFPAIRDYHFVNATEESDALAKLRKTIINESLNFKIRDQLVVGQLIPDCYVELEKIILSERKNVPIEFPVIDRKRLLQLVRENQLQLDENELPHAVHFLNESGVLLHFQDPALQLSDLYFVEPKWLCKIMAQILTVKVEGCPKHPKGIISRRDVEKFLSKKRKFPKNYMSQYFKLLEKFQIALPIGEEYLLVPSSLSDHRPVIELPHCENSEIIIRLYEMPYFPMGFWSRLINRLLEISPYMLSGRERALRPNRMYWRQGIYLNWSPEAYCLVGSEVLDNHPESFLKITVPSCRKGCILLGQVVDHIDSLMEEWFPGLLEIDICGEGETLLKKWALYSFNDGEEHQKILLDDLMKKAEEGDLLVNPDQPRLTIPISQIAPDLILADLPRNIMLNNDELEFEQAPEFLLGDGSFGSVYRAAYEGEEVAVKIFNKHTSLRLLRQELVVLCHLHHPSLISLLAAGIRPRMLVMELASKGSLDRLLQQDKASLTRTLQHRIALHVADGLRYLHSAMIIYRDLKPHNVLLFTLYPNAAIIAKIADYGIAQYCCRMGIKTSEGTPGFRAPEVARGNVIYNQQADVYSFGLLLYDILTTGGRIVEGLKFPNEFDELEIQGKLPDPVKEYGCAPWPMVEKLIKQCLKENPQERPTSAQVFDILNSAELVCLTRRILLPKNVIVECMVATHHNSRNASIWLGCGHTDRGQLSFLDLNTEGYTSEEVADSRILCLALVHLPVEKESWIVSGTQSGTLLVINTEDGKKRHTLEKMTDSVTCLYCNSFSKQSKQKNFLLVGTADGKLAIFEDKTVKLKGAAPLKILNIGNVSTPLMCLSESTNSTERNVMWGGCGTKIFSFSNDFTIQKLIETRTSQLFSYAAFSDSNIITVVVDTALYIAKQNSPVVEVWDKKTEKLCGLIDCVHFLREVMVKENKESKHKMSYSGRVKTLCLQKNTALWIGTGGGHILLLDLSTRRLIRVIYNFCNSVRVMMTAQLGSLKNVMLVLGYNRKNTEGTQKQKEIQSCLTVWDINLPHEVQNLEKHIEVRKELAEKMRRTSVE
procedure.details: LRRK2 wild type protein kinase assay ([γ-33P] ATP, peptide substrate […]), IC50
condition.description: LRRK2 (variant not given); read-out: Potency score, LRRK2 IC50
endpoint.name: IC50

>>> df
                                    compound  endpoint_name       result
 0  COc1ccccc1CNc1nccc2[nH]nc(C)c12 [Example 336]           IC50   1 to 10 µM
 1  Cc1n[nH]c2ccnc(Nc3ccc4c(c3)CN(C)CC4)c12 [Example 75]           IC50  0.1 to 1 µM
 2  O=C(c1ccc(CCc2n[nH]c3ccnc(NC4CCCCC4)c23)cc1)N1CCOCC1 [Example 253]           IC50     < 0.1 µM
 3  Fc1cc(-c2n[nH]c3ccnc(NC4CCCCC4)c23)cc(F)c1F [Example 163]           IC50   1 to 10 µM
 4  Cc1n[nH]c2ccnc(N[C@H](C)c3ccccc3)c12 [Example 19]           IC50   1 to 10 µM
 5  Cc1n[nH]c2ccnc(Nc3ccc4cn[nH]c4c3)c12 [Example 93]           IC50  0.1 to 1 µM
 6  O=C(Nc1cccc(CCc2n[nH]c3ccnc(NC4CCCCC4)c23)c1)c1cccc(Cl)c1 [Example 226]           IC50     < 0.1 µM
 7  O=C(COc1ccccc1)Nc1ccc(CCc2n[nH]c3ccnc(NC4CCCCC4)c23)cc1 [Example 273]           IC50     < 0.1 µM
 8  O=C(CCc1n[nH]c2ccnc(NC3CCCCC3)c12)N1CCCCC1 [Example 169]           IC50  0.1 to 1 µM
 9  Cc1n[nH]c2ccnc(Nc3ccc(C(F)(F)F)cc3)c12 [Example 346]           IC50  0.1 to 1 µM
10  Brc1n[nH]c2ccnc(NC3CCCCC3)c12 [Example 134]           IC50     < 0.1 µM
11  COc1ccc(C(=O)N2CCC(Nc3nccc4[nH]nc(C)c34)CC2)cc1 [Example 105]           IC50   1 to 10 µM
12  O=C(Nc1ccncc1)c1ccc(CCc2n[nH]c3ccnc(NC4CCCCC4)c23)cc1 [Example 256]           IC50     < 0.1 µM
13  O=C(CC1CC1)Nc1cccc(CCc2n[nH]c3ccnc(NC4CCCCC4)c23)c1 [Example 223]           IC50     < 0.1 µM
14  Cc1n[nH]c2ccnc(Nc3cnn(C)c3)c12 [Example 88]           IC50  0.1 to 1 µM
15  Cc1n[nH]c2ccnc(CCC(C)C)c12 [Example 128]           IC50   1 to 10 µM
16  Cc1n[nH]c2ccnc(Nc3ccc(Cl)cc3)c12 [Example 310]           IC50  0.1 to 1 µM
17  CC[C@H](C)Oc1nccc2[nH]nc(C)c12 [Example 121]           IC50     < 0.1 µM
18      CCCNc1nccc2[nH]nc(C)c12 [Example 16]           IC50  0.1 to 1 µM
19  FC(F)(F)Oc1ccccc1-c1n[nH]c2ccnc(NC3CCCCC3)c12 [Example 151]           IC50   1 to 10 µM
